TEST_SYSTEM: DLG4_2, P78352
Sequence (P78352 155-259): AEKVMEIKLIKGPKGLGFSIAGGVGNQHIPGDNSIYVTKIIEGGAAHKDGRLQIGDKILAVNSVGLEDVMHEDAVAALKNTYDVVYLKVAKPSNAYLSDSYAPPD
ASSAY_NAME: holdup assay
Design: key: below the threshold = too weak to quantify, mostly under pKd 3.1 to 4
SETUP_CONDITIONS: plain residues with an end cap or a label only (N-terminal biotin on a linker: ttds)
Recorded pKd for the following binders
Please state the value as a number alone, without comment.

BINDER	ASSAY_READOUT	VALUE_OBSERVED
FVETQHQTQV [FAT3, Q8TDW7]	pKd	4.57

Request: Determine from records and report pKd for SGGKRKETLV [NET1, Q7Z628]
Result: 5.77

Request: Determine from records and report pKd for GRLLGLETNV [ARHGEF26, Q96DR7]
Result: 4.85

Request: Determine from records and report pKd for SHSSKGETAV [FZD7, O75084]
Result: 4.69

Request: Determine from records and report pKd for SRSRRRETAL [HPV33-E6, P06427]
Result: 4.77

Request: Determine from records and report pKd for NPDALPETLV [ARHGAP6, O43182]
Result: 4.42

Request: Determine from records and report pKd for KQVVPFSSSV [GDA, Q9Y2T3]
Result: 4.42

Request: Determine from records and report pKd for SSIDLWETAL [SLC15A5, A6NIM6]
Result: 4.22

Request: Determine from records and report pKd for PPRQRSETQV [HPV82-E6, Q9IR59]
Result: 4.9

Request: Determine from records and report pKd for PFRSRSPSEV [GPR6, P46095]
Result: 3.75

Request: Determine from records and report pKd for KLVIKTETTV [RASSF6, Q6ZTQ3]
Result: 5.48

Request: Determine from records and report pKd for QRPYRRESEI [KCNJ12, Q14500]
Result: 4.56

Request: Determine from records and report pKd for GARVSKETPL [MAPK12, P53778]
Result: 4.45

Request: Determine from records and report pKd for PSRDRKETSI [RALBP1, Q15311]
Result: 4.58

Source: paper PMC9482650
